# assay-system: Delta-type opioid receptor (Homo sapiens); further: in other assays of this panel Not Active means under 50% inhibition at 10 µM
# Sequence (P41143 whole entry): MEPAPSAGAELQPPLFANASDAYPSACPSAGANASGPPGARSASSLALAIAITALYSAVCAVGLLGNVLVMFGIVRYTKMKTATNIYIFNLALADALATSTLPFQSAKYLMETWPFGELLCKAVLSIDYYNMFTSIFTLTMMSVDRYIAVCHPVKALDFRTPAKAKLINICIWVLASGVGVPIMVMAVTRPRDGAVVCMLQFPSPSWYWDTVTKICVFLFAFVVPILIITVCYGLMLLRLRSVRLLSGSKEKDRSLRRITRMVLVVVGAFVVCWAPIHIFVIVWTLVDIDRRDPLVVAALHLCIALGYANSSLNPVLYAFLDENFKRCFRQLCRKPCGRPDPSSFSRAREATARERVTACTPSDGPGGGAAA
# Format: cell membranes, HEK293, Membrane
# setup-conditions: hek293
observation-type: IC50

Example entries begin here.
INSERT INTO measurements (compound, observation_type, val) VALUES
  ('CC(=O)O[C@]1(C(C)=O)CC[C@H]2[C@@H]3C=C(Cl)C4=CC(=O)CC[C@]4(C)[C@H]3CC[C@@]21C [CHLORMADINONE ACETATE]', 'IC50', 'Not Active'),
  ('CCCC[C@@H](CC)COC(=O)c1ccccc1C(=O)OC[C@@H](CC)CCCC [BIS(2-ETHYLHEXYL)PHTHALATE]', 'IC50', 'Not Active'),
  ('O=C(O)c1cn(C2CC2)c2cc(N3CCNCC3)c(F)cc2c1=O', 'IC50', 'Not Active'),
  ('COc1ccc2cc(CC(=O)O)ccc2c1', 'IC50', 'Not Active'),
  ('CC(C)(Oc1ccc(CCNC(=O)c2ccc(Cl)cc2)cc1)C(=O)O [BEZAFIBRATE]', 'IC50', 'Not Active'),
  ('CC[C@H]1OC(=O)[C@H](C)[C@@H](O[C@H]2C[C@@](C)(OC)[C@@H](O)[C@H](C)O2)[C@H](C)[C@@H](O[C@@H]2O[C@H](C)C[C@H](N(C)C)[C@H]2O)[C@](C)(O)C[C@@H](C)/C(=N\OCOCCOC)[C@H](C)[C@@H](O)[C@]1(C)O', 'IC50', 'Not Active');

Qu. # query: IC50 | item `O=C1NC(=O)C(c2ccccc2)(c2ccccc2)N1` | system: Delta-type opioid receptor (Homo sapiens); further: in other assays of this panel Not Active means under 50% inhibition at 10 µM
Ans. Not Active

====

# measurement-description: DRUGMATRIX: Leukotriene, BLT (LTB4) radioligand binding (ligand: [3H]LTB4)
# Format: cell membranes, Membrane
# setup-conditions: u-937; Not Active = under 50% inhibition at 10 µM
observation-type: Ki

INSERT INTO measurements (compound, val) VALUES
  ('Brc1ccccc1 [BROMOBENZENE]', 'Not Active'),
  ('C=C1[C@@H]2CCC3[C@@](CC[C@@H]4[C@H](C(=O)O)C[C@@H](O[C@@H]5O[C@H](CO)[C@@H](OS(=O)(=O)[O-])[C@H](OS(=O)(=O)[O-])[C@H]5OC(=O)CC(C)C)C[C@@]34C)(C2)[C@@H]1O.[K+].[K+] (stereo partly drawn) [ATRACTYLOSIDE]', 'Not Active'),
  ('CC[N+](CC)(CC)CCOc1cccc(OCC[N+](CC)(CC)CC)c1OCC[N+](CC)(CC)CC.[I-].[I-].[I-] [GALLAMINE TRIETHIODIDE]', 'Not Active');

====

# measurement-description: DRUGMATRIX: Glutamate, Kainate radioligand binding (ligand: [3H] Kainic acid)
# Assay type: cell membranes, Rattus norvegicus, Wistar, Brain, Membrane
# setup-conditions: Not Active = under 50% inhibition at 10 µM
observation-type: IC50

Example entries begin here.
INSERT INTO results (substance, val) VALUES
  ('IVERMECTIN', 'Not Active'),
  ('GOLD SODIUM THIOMALATE', 'Not Active'),
  ('CISPLATIN', 'Not Active'),
  ('OXALIPLATIN', 'Not Active');

For the next question, use this substance.
Qu. What does the record list as IC50 for `CARBOPLATIN` ?
Ans. Not Active

====

# assay-system: Angiotensin-converting enzyme (Oryctolagus cuniculus);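 further: enzymatic inhibition of angiotensin-converting enzyme measured with FAPGG as the substrate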; further: in other assays of this panel Not Active means under 50% inhibition at 10 µM
# Sequence (P12822 whole entry): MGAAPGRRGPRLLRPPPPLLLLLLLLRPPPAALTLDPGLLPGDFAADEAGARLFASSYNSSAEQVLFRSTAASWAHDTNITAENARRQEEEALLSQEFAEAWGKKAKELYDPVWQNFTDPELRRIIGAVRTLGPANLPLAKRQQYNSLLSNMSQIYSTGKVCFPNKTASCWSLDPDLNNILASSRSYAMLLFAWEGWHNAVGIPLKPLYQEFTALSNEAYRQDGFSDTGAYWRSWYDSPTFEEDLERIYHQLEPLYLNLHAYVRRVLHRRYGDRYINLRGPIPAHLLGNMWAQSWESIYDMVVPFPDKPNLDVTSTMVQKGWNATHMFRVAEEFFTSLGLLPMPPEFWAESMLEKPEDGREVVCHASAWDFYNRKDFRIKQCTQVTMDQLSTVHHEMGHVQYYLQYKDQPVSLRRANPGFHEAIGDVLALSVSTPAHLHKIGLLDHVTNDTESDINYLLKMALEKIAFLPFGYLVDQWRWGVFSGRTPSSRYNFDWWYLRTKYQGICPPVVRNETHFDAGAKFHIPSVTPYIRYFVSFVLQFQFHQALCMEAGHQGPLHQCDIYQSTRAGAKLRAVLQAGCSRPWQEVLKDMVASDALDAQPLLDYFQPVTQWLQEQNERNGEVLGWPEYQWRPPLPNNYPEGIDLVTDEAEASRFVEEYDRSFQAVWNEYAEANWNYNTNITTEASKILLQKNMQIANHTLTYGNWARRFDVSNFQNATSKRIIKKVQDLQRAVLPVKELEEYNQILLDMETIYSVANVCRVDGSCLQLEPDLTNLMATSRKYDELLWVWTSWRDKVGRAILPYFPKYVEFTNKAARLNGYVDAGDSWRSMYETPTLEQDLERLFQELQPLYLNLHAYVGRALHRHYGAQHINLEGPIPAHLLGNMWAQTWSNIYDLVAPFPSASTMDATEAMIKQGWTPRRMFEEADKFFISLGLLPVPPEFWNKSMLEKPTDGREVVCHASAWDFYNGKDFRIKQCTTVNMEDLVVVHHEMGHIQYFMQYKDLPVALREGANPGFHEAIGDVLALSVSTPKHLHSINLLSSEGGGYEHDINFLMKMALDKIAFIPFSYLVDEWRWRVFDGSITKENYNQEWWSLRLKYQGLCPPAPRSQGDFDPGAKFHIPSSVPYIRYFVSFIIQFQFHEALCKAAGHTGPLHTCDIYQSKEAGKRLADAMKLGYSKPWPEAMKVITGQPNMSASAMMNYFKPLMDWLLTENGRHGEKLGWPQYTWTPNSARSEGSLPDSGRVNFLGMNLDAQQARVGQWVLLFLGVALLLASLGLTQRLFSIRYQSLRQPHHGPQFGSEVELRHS
# measurement-description: biochemical
# Type: tissue-based, Lung
observation-type: IC50

INSERT INTO assay_data (compound, observation_type, val) VALUES
  ('COc1ccc2cc(CC(=O)O)ccc2c1', 'IC50', 'Not Active'),
  ('CC[C@H]1OC(=O)[C@H](C)[C@@H](O[C@H]2C[C@@](C)(OC)[C@@H](O)[C@H](C)O2)[C@H](C)[C@@H](O[C@@H]2O[C@H](C)C[C@H](N(C)C)[C@H]2O)[C@](C)(O)C[C@@H](C)/C(=N\OCOCCOC)[C@H](C)[C@@H](O)[C@]1(C)O [ROXITHROMYCIN]', 'IC50', 'Not Active'),
  ('Cc1[nH]cnc1CN1CCc2c(c3ccccc3n2C)C1=O [ALOSETRON]', 'IC50', 'Not Active');

====

# assay-system: Receptor tyrosine-protein kinase erbB-2 (Homo sapiens, UniProt P04626); further: in other assays of this panel Not Active means under 50% inhibition at 10 µM
# Sequence (P04626 whole entry): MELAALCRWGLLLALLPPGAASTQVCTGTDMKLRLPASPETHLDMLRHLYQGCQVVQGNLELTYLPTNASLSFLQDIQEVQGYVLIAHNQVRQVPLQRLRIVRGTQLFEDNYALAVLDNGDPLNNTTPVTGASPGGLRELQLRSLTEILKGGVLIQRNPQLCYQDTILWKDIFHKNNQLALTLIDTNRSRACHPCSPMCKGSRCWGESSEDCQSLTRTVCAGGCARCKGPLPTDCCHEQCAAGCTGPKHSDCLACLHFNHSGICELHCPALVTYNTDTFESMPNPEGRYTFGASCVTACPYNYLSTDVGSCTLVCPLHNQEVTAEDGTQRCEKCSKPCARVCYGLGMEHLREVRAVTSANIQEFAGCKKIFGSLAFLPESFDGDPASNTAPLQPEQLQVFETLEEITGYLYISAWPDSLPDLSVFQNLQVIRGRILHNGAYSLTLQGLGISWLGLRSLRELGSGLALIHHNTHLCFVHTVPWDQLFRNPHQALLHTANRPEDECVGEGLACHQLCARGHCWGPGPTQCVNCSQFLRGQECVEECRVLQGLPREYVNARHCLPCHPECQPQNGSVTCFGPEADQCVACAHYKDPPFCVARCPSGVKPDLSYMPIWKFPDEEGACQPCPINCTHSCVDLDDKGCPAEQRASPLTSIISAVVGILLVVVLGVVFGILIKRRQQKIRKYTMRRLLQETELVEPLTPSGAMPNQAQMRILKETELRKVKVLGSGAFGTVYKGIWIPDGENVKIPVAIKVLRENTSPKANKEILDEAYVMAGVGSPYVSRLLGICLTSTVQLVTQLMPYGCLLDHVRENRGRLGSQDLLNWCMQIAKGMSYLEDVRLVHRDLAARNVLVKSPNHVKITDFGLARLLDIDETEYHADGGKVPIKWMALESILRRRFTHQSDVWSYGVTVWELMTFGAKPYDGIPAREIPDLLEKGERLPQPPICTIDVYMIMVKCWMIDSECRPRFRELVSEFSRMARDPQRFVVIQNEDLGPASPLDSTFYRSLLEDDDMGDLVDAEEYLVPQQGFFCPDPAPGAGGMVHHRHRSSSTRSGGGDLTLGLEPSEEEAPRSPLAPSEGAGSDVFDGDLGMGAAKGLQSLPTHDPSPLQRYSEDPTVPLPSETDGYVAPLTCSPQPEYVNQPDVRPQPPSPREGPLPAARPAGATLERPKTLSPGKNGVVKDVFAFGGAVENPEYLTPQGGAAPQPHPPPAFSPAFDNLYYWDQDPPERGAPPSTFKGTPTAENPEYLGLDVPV
# measurement-description: biochemical
# Assay type: cell-based, Insect cells
# setup-conditions: insect cells
observation-type: IC50

Example entries begin here.
INSERT INTO results (compound, val) VALUES
  ('COc1ccc2c(c1)c(CC(=O)OCC(=O)O)c(C)n2C(=O)c1ccc(Cl)cc1', 'Not Active'),
  ('CC(=O)OCC(=O)[C@@]1(OC(C)=O)[C@@H](C)C[C@H]2[C@@H]3C[C@H](F)C4=CC(=O)C=C[C@]4(C)[C@@]3(F)[C@@H](O)C[C@@]21C [DIFLORASONE DIACETATE]', 'Not Active'),
  ('Nc1nnc(-c2cccc(Cl)c2Cl)c(N)n1', 'Not Active'),
  ('Fc1ccc([C@@H]2CCNC[C@H]2COc2ccc3c(c2)OCO3)cc1', 'Not Active'),
  ('CN1C[C@H](C(=O)N[C@]2(C)O[C@@]3(O)[C@@H]4CCCN4C(=O)[C@H](Cc4ccccc4)N3C2=O)C=C2c3cccc4[nH]cc(c34)C[C@H]21', 'Not Active'),
  ('CC(C)NC[C@H](O)COc1cccc2[nH]ccc12', 'Not Active'),
  ('Cc1c(-c2ccccc2)oc2c(C(=O)OCCN3CCCCC3)cccc2c1=O [FLAVOXATE]', 'Not Active'),
  ('COc1cc(C(=O)NC2CCCNC2)cc(OC)c1OC (configuration not stated) [TROXIPIDE]', 'Not Active'),
  ('CC(/C=C1\SC(=S)N(CC(=O)O)C1=O)=C\c1ccccc1', 'Not Active'),
  ('O=c1[nH]cc(F)c(=O)[nH]1', 'Not Active');

Qu. # query: IC50 | item `C[C@](N)(Cc1ccc(O)cc1)C(=O)O` | system: Receptor tyrosine-protein kinase erbB-2 (Homo sapiens, UniProt P04626); further: in other assays of this panel Not Active means under 50% inhibition at 10 µM
Ans. Not Active

Qu. # query: IC50 | item `COC1=CC(=O)C[C@@H](C)[C@]12Oc1c(Cl)c(OC)cc(OC)c1C2=O` | system: Receptor tyrosine-protein kinase erbB-2 (Homo sapiens, UniProt P04626); further: in other assays of this panel Not Active means under 50% inhibition at 10 µM
Ans. Not Active

Qu. # query: IC50 | item CCc1ccc(C(=O)C(C)CN2CCCCC2)cc1 (configuration not stated) | system: Receptor tyrosine-protein kinase erbB-2 (Homo sapiens, UniProt P04626); further: in other assays of this panel Not Active means under 50% inhibition at 10 µM
Ans. Not Active

Qu. # query: IC50 | item `CCC1(c2ccccc2)C(=O)NCNC1=O` | system: Receptor tyrosine-protein kinase erbB-2 (Homo sapiens, UniProt P04626); further: in other assays of this panel Not Active means under 50% inhibition at 10 µM
Ans. Not Active

Qu. # query: IC50 | item `OCc1ccccc1` | system: Receptor tyrosine-protein kinase erbB-2 (Homo sapiens, UniProt P04626); further: in other assays of this panel Not Active means under 50% inhibition at 10 µM
Ans. Not Active

Qu. # query: IC50 | item COc1cccc(C2(O)CCCCC2CN(C)C)c1 (configuration not stated) | system: Receptor tyrosine-protein kinase erbB-2 (Homo sapiens, UniProt P04626); further: in other assays of this panel Not Active means under 50% inhibition at 10 µM;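 further: inhibition of HER2 kinase enzyme activity, measured with Poly(Glu:Tyr) as the phosphorylation substrate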
Ans. Not Active

====

# assay-system: Caspase-1 (Homo sapiens, UniProt P29466);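 further: Caspase-1 enzyme inhibition assay with a peptide substrate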; further: in other assays of this panel Not Active means under 50% inhibition at 10 µM
# Sequence (P29466 whole entry): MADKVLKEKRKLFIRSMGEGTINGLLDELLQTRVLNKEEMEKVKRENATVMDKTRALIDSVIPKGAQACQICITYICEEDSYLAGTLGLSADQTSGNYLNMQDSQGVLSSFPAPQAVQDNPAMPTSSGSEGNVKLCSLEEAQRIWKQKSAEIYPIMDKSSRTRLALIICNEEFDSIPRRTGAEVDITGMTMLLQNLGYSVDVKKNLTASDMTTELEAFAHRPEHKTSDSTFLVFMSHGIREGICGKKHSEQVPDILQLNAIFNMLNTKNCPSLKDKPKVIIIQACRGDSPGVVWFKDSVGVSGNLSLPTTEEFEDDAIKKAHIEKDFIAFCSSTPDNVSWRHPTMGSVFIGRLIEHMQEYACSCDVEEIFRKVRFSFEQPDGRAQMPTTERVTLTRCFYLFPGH
# Parameters: species or system Escherichia coli
observation-type: IC50

INSERT INTO results (structure, observation_type, val) VALUES
  ('Oc1cccc2cccnc12', 'IC50', 'Not Active'),
  ('COC(=O)[C@@H]1[C@H]2C[C@H]3c4[nH]c5ccccc5c4CCN3C[C@@H]2CC[C@@H]1O', 'IC50', 'Not Active'),
  ('COc1ccc(CCN2CCC(Nc3nc4ccccc4n3Cc3ccc(F)cc3)CC2)cc1', 'IC50', 'Not Active'),
  ('CCCc1cc(=O)[nH]c(=S)[nH]1', 'IC50', 'Not Active'),
  ('O=C1OC2(c3ccc(O)cc3Oc3cc(O)ccc32)c2ccccc21', 'IC50', 'Not Active'),
  ('CC(=O)S[C@@H]1CC2=CC(=O)CC[C@]2(C)[C@H]2CC[C@@]3(C)[C@@H](CC[C@@]34CCC(=O)O4)[C@H]12', 'IC50', 'Not Active');

Qu. What does the record list as IC50 for `COC(=O)C1=C(C)NC(C)=C(C(=O)OC)C1c1ccccc1[N+](=O)[O-]` ?
Ans. Not Active

Qu. What does the record list as IC50 for `C/C=C1\[C@H]2C=C(C)C[C@]1(N)c1ccc(=O)[nH]c1C2` ?
Ans. Not Active

Numbers sourced from ChEMBL document CHEMBL1909046.
